Tested on: mouse bone marrow cells
Assay: Metabolism promoting action on mouse bone marrow cells (mitochondrial metabolism activity, MTT reduction method)
Type: cell-based, BALB/c mouse
Conditions: Mus musculus, Bone marrow cell, 120 h; Test compound concentration 0.78 µg/ml; 5 days; magnitude of metabolism, no test compound = one
Endpoint: activity at 0.78 µg/mL (%)
Give the quantity in %, number only.

Measured activity at 0.78 µg/mL of CCCCCCCCCOc1cc2c(c(OC)c1CCC(C)C)CC(c1ccc(O)c(CCC(C)C)c1OCCCCCCCCC)CO2 (centres unmarked) : 102

Measured activity at 0.78 µg/mL of CCCCCCOc1cc2c(c(OC)c1CCC(C)C)CC(c1ccc(O)c(CCC(C)C)c1OCCCCCC)CO2 (centres unmarked) : 149

Measured activity at 0.78 µg/mL of COc1cc2c(c(OC)c1C=CC(C)C)CC(c1ccc(O)cc1O)CO2 (centres unmarked) : 145

Measured activity at 0.78 µg/mL of COc1cc(OC)c2c(c1)OCC(c1ccc(O)c(CC=C(C)C)c1O)C2 (centres unmarked) : 115

Measured activity at 0.78 µg/mL of COc1ccc(C2COc3cc(OC)c(CC=C(C)C)c(OC)c3C2)c(O)c1CC=C(C)C (centres unmarked) : 107

Measured activity at 0.78 µg/mL of COc1cc(OC)c2c(c1)OCC(c1ccc(OCc3ccccc3)cc1OCc1ccccc1)C2 (centres unmarked) : 116

Measured activity at 0.78 µg/mL of COc1cc2c(c(OC)c1CC=C(C)C)CC(c1ccc(O)c(CC=C(C)C)c1OC)CO2 (centres unmarked) : 120

Measured activity at 0.78 µg/mL of COc1ccc(C2COc3cc(OC)c(CC=C(C)C)c(OC)c3C2)c(OC)c1CC=C(C)C (centres unmarked) : 108

Measured activity at 0.78 µg/mL of COc1c(CC=C(C)C)c(O)cc2c1CC(c1ccc(O)c(CC=C(C)C)c1O)CO2 (centres unmarked) : 101

Measured activity at 0.78 µg/mL of COc1c(C2COc3cc(O)c(CC=C(C)C)c(OC)c3C2)ccc(O)c1CC=C(C)C (centres unmarked) : 127

Measured activity at 0.78 µg/mL of COc1cc(OC)c2c(c1)OCC(c1ccc(O)cc1OCC=C(C)C)C2 (centres unmarked) : 115

Measured activity at 0.78 µg/mL of COc1cc2c(c(OC)c1CCC(C)C)CC(c1ccc(O)cc1O)CO2 (centres unmarked) : 129

====

Listed next: entries and their corresponding activity at 6.25 µg/mL.
Test system: mouse spleen cells
Test: Action on the blastogenesis of mouse spleen cells (ConA-stimulated, MTT reduction method)
Type: cell-based, BALB/c mouse
Settings: Mus musculus, 72 h; concentration of additions in medium 6.25 μg/ml; ConA 1 µg/ml, 3 days; rate against no test compound = one
Experimental: Serial two-fold dilutions (100 µl/well) with 10% FBS of test compounds which are dissolved in a dimethyl sulfoxide (DMSO) solution are obtained on a 96-well microplate, and used as test samples. […] Thereafter, culturing is carried out under 5% carbon dioxide gas at 37°C for 3 days, and then the blastogenesis of lymphocytes is measured by an MTT reduction method [Mosmann T, Journal of Immunological Method, vol. […]
Give the quantity in %, number only.

// worked examples, activity at 6.25 µg/mL included
1. COc1cc2c(c(OC)c1CC=C(C)C)CC(c1ccc(O)c(CC=C(C)C)c1OC)CO2 (stereo not shown) ... 239
2. COc1c(CC=C(C)C)c(O)cc2c1CC(c1ccc(O)c(CC=C(C)C)c1O)CO2 (stereo not shown) ... 171
3. COc1c(C2COc3cc(O)c(CC=C(C)C)c(OC)c3C2)ccc(O)c1CC=C(C)C (stereo not shown) ... 23
4. COc1ccc(C2COc3cc(OC)c(CC=C(C)C)c(OC)c3C2)c(OC)c1CC=C(C)C (stereo not shown) ... 246
5. COc1ccc(C2COc3cc(OC)c(CC=C(C)C)c(OC)c3C2)c(O)c1CC=C(C)C (stereo not shown) ... 375
6. COc1ccc(C2COc3cc(O)c(CC=C(C)C)c(OC)c3C2)c(O)c1CC=C(C)C (stereo not shown) ... 408

Could you now look at the following molecule, please?
Measured activity at 6.25 µg/mL of COc1cc2c(c(OC)c1CC=C(C)C)CC(c1ccc(O)c(CC=C(C)C)c1O)CO2 (stereo not shown) : 26
